- Tested on: L929
- experimental_details: Cytotoxicity against mouse L929 cells after 5 days by WST-1 assay
- Format: cell-based
- test_conditions: mouse, l929, 120 h
measure_name: IC90

INSERT INTO measurements (structure, result) VALUES
  ('NCCC(=O)c1cccc2c1N[C@H](CNC(=O)c1cc(Br)c(Br)[nH]1)[C@@H](c1cnc(N)[nH]1)O2', 'Not Active'),
  ('C[n+]1cnc2[nH]c(=O)n(-c3nc(N)[nH]c3[C@@H]3[C@@H](CNC(=O)c4cc(Br)c[nH]4)[C@H](CNC(=O)c4cc(Br)c[nH]4)[C@H]3c3cnc(N)[nH]3)c2c1N', 'Not Active'),
  ('Nc1ncc(/C=C/CNC(=O)c2cc(Br)c(Br)[nH]2)[nH]1', 'Not Active'),
  ('Nc1ncc([C@@H]2[C@@H](CNC(=O)c3ccc[nH]3)[C@H](CNC(=O)c3cc(Br)c[nH]3)[C@H]2c2cnc(N)[nH]2)[nH]1', 'Not Active');
